The origin of these recorded values is patent US4784992A.

experiment_notes: acute toxicity in the mouse (mortality curve and LD50)
Type: in vivo
condition_info: in vivo, ip; mouse, e.p.; 7 days observation
parameter: LD50 at 168 h

Using the record for C[N+](C)(C)CC(O)CC(=O)NCCOP(=O)([O-])O [L-carnitine phosphorylethanolamide] , report its LD50 at 168 h.
> 8000 mg/kg
